# Test system: TRFP primed T cell cultures
# Assay Summary: T cell proliferation assay (tritiated thymidine incorporation) of TRFP-primed T cells restimulated with allergens or peptides
# Format: cell-based, human
# Study Conditions: Chain #2 TRFP peptides; cat allergic patients; average SI of responding patients multiplied by percent positive
Endpoint Name: PI
Write no unit; give the number alone.

Example cases with answers are listed next.
- Substance: "Fel 32-2: TRFP chain 2 peptide, amino acids 14 - 24 (FFAVANGNELL; UniProt P30440 31-41, looked up, fragment)"
  PI: 424
- Substance: "Fel 28: TRFP chain 2 peptide, amino acids 60 - 82 (DGLVMTTISSSKDCMGEAVQNTV; UniProt P30440 77-99, looked up, fragment)"
  PI: 94

Given the entry Fel 31-5: TRFP chain 2 peptide, amino acids 14 - 36 (FFAVANGNELLLDLSLTKVNATE; UniProt P30440 31-53, looked up, fragment) , report its measured PI. 539

====

# Test system: TRFP primed T cell cultures
# Assay Summary: T cell proliferation assay (tritiated thymidine incorporation) of TRFP-primed T cells restimulated with allergens or peptides
# Format: cell-based, human
# Study Conditions: result in words, summarising Tables 2 and 3
# Description: Peripheral blood mononuclear cells (PBMC) were purified from 60 ml of heparinized blood from cat allergic patients. PBMC were subsequently treated as described below, although in individual cases, the length of time of cultivation with IL-2 and/or IL-4 and the specific peptides used for stimulation varied. 10 ml of PBMC from patient 131 at 10^6/ml were cultured at 37°C for 7 days in the presence of 5 micrograms purified TRFP/ml RPMI-1640 supplemented with 5% pooled human AB serum. […]

- Substance: "Fel 8-3: TRFP chain 1 peptide, amino acids 7 - 33 (KRDVDLFLTGTPDEYVEQVAQYKALPV; UniProt P30438 29-55, looked up, fragment)"
  T cell stimulatory activity: "powerful activity"
- Substance: "Fel 14: TRFP chain 1 peptide, amino acids 18 - 43 (PDEYVEQVAQYKALPVVLENARILKN; UniProt P30438 40-65, looked up, fragment)"
  T cell stimulatory activity: "powerful activity"

====

# Test system: Peripheral blood mononuclear cells (PBMC)
# Assay Summary: Cytokine profiles (IL-2, IFN-γ, IL-4 cDNA) by PCR in a primary 36 hour PBMC culture
# Assay type: cell-based, human
# Parameters: key: fold over medium control; undetectable control set to 1.00
# Study Conditions: Patient 409 primary 36 hour culture; 20 micrograms TRFP/ml or 50 micrograms peptide/ml; relative to medium control
Labelling field: enter yes (1) if recorded STIMULATION INDEX IL-4 is less than 2. Enter no (0) if it equals or exceeds that cut-off.

For orientation, consider the following solved cases.
- Substance: "Fel 17: TRFP chain 2 peptide, amino acids 12 - 33 (DVFFAVANGNELLLDLSLTKVN; UniProt P30440 29-50, looked up, fragment)"
  Group: "no (0)"
- Substance: "Fel 20-1: TRFP chain 2 peptide, amino acids 34 - 59 (ATEPERTAMKKIQDCYVENGLISRVL; UniProt P30440 51-76, looked up, fragment)"
  Group: "no (0)"
- Substance: "Fel 28: TRFP chain 2 peptide, amino acids 60 - 82 (DGLVMTTISSSKDCMGEAVQNTV; UniProt P30440 77-99, looked up, fragment)"
  Group: "yes (1)"
- Substance: "Fel 8: TRFP chain 1 peptide, amino acids 1 - 30 (EICPAVKRDVDLFLTGTPDEYVEQVAQYKA; UniProt P30438 23-52, looked up, fragment)"
  Group: "yes (1)"
- Substance: "Fel 25: TRFP chain 2 peptide, amino acids 49 - 68 (YVENGLISRVLDGLVMTTIS; UniProt P30440 66-85, looked up, fragment)"
  Group: "no (0)"

Check if STIMULATION INDEX IL-4 falls below 2 for Fel 14: TRFP chain 1 peptide, amino acids 18 - 43 (PDEYVEQVAQYKALPVVLENARILKN; UniProt P30438 40-65, looked up, fragment) . yes (1)

Check if STIMULATION INDEX IL-4 falls below 2 for Fel 29: TRFP chain 2 peptide, amino acids 74 - 92 (MGEAVQNTVEDLKLNTLGR; UniProt P30440 91-109, looked up, fragment) . yes (1)

Each recorded value in this set is attributed to patent EP0500785B1.
